The values you see were collected from paper PMC8459971.

Listed below: microsomal CLint at 3 μM values for each entry.
test: Stability in microsomes, human; type: in vitro ADME; conditions: Human microsomes, mean n = 2
// note: answer is a bare numeric in µL/min/mg

QUERY: Consider the compound shown here: Cc1cc(OCCCS(C)(=O)=O)cc(C)c1-c1cccc(COc2ccc3c(c2)OC[C@H]3CC(=O)O)c1 [TAK-875, fasiglifam, reference compound] What is its recorded microsomal CLint at 3 μM?
RESULT: 6.6

QUERY: I am curious: what microsomal CLint at 3 μM value has been reported for CC#C[C@@H](CC(=O)O)c1ccc(OCC(C)=C(C)C)cc1 ?
RESULT: 49.2
